target_system: human apelin receptor (Homo sapiens)
Construct: expressed in transfected cells
Sequence (P35414 whole entry): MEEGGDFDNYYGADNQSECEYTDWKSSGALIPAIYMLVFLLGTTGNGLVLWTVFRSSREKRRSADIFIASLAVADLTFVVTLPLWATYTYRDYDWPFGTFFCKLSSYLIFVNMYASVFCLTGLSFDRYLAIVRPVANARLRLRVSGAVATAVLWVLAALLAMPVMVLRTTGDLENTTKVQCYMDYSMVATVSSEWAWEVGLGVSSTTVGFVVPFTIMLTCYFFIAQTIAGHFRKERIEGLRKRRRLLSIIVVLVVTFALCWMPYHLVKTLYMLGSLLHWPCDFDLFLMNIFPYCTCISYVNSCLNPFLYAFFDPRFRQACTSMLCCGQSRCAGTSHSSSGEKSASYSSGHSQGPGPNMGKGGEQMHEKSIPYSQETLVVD
assay_name: Determination of agonism on the human apelin receptor by a calcium fluorescence assay (FLIPR)
Assay type: cell-based
test_context: HEK293 cells stably transfected with human apelin receptor and Giaq protein, Fluo-4 calcium fluorescence, read-out: EC50 (APJ agonism)
pEC50: −log10 of the molar value.
Reported pEC50 is given for each of the following compounds.

compound	pEC50
CCC(CC)n1c(Cc2cccs2)nc2cc(C(=O)N[C@@H](CO)CCSC)ccc21 [Example 195]	4.82
CCC(CC)n1c(Cc2cccs2)nc2cc(C(=O)NC(CC(=O)O)CC3CCCCC3)ccc21 (single isomer, unassigned) [Example 454]	6.90
CC(C)C[C@@H](CC(=O)O)NC(=O)c1ccc2c(c1)nc(Cc1cccs1)n2CC1CCCCC1 [Example 97]	4.41
CCC[C@@H](CO)NC(=O)c1ccc2c(c1)nc(CC1CCCC1)n2C(CC)CC [Example 186]	5.33
CCC(CC)n1c(Cc2cccs2)nc2cc(C(=O)N[C@@H](CC(C)C)C(=O)N3CCN(CC(C)C)CC3)ccc21 [Example 272]	5.56
CCCCC(CC(=O)O)NC(=O)c1ccc2c(c1)nc(Cc1cccs1)n2[C@@H]1CCCC[C@H]1C (single isomer, unassigned) [Example 461]	5.46
CCC(CC)n1c(Cc2cccs2)nc2cc(C(=O)N[C@H](CO)CC3CCCCC3)ccc21 [Example 177]	5.62
